# assay_protocol: chemical genetic growth profiling, strain panel (AID 1159580);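 also: tested at 20 µM; growth read once vehicle control cultures reached saturation at 30 °C; 1 = growth at the plate median or of vehicle wells; lower values mean less growth of the strain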
# test_parameters: S. cerevisiae deletion strains, growth OD, locus YLR102C, strain apc9, active compounds read low
In all, about 5,500 compounds went through this assay and about 2,000 (36%) were called active. About 18% were inconclusive and are not listed. Some of the results follow.
measurement_kind: normalized growth
No unit in the answer, only the number.

1. CC12CCC(=O)C=C1CCC1C2[C@@H](O)CC2(C)C1CC[C@]2(O)C(=O)COP(=O)(O)O (some centres not stated)
0.998
2. C[C@H](CCC(=O)O)[C@H]1CCC2C3C(=O)CC4CC(=O)CC[C@]4(C)C3CC(=O)[C@@]21C (some centres not stated)
0.999
3. Oc1c(Cl)cc(Cl)cc1Sc1cc(Cl)cc(Cl)c1O
0.962
4. CS(=O)(=O)Nc1ccc([N+](=O)[O-])cc1Oc1ccccc1
0.984
5. CCOC(=O)NNc1nncc2ccccc12
0.979
6. CCOC(=O)[C@H](CCc1ccccc1)N[C@@H](C)C(=O)N1CCC[C@H]1C(=O)O
1.02
7. COc1ccccc1OCC(O)CO (configuration not stated)
0.982
8. Cc1cc(=O)oc2cc(O)c(O)cc12
1.01
9. COc1cc(C/C=C/c2ccccc2)c(OC)cc1O
0.964
10. CCCc1cc(=O)[nH]c(=S)[nH]1
0.992

Kindly review the next molecule as well.
Fill blank: measured normalized growth of the molecule COC(=O)/C(=C1\OC(=O)C(c2ccccc2)=C1O)c1ccccc1 is ____.
0.988

----------
# assay_protocol: chemical genetic growth profiling, strain panel (AID 1159580)
# test_parameters: S. cerevisiae deletion strains, growth OD, locus YLR370C, strain arc18, active compounds read low
Screen size: about 5,500 compounds; about 2,000 (36%) were called active. Not shown: some 18% with an inconclusive outcome. The list shows a part of the results.
measurement_kind: normalized growth
Please give only the number in your answer, with no unit.

Worked set:
1) OC[C@H]1O[C@@H](O[C@H]2[C@H](O)[C@@H](O)[C@@H](O)O[C@@H]2CO)[C@H](O)[C@@H](O)[C@@H]1O
1.01
2) COc1ccc([C@@H]2CC(=O)c3c(O)cc(O[C@@H]4O[C@H](CO[C@H]5O[C@@H](C)[C@H](O)[C@@H](O)[C@H]5O)[C@@H](O)[C@H](O)[C@H]4O)cc3O2)cc1O
0.991

Consider now this further molecule.
What value of measured normalized growth is listed for CCC(C)C(=O)OC1[C@@H]2CC3=C4CC(=O)O[C@@H](c5ccoc5)[C@]4(C)CCC3[C@@](C)(C2=O)[C@@H](CC(=O)OC)C1(C)C (some centres not stated) ?
1.01

----------
Measured normalized growth accompanies every entry in the list below.
# assay_protocol: chemical genetic growth profiling, strain panel (AID 1159580)
# test_parameters: S. cerevisiae deletion strains, growth OD, locus YLR133W, strain CKI1, active compounds read low
In all, about 5,500 compounds went through this assay and about 2,000 (36%) were called active. Inconclusive results (about 18%) are left out. The list shows a part of the results.

As a guide, the following entries are already answered.
1. CC(=O)c1ccc(Cl)c(N=Cc2cc(Cl)cc(Cl)c2O)c1
0.274 (active)
2. CSc1sc(C(=O)Sc2ccccc2)cc1S(=O)(=O)C(C)C
0.955 (inactive)
3. CSc1n[nH]c(-c2cc(C(C)(C)C)oc2C)c1C#N
0.888 (inactive)
4. CCOC(=O)c1ccc(Cl)c(N=Cc2cc(Cl)cc(Cl)c2O)c1
0.432 (active)
5. O=C1c2cccc3c(Sc4ccccc4)ccc(c23)C(=O)N1NCCO
0.844 (inactive)

Consider the compound shown here: O=S(=O)(Nc1ccccc1Oc1ccccc1)c1ccc(-c2ccno2)s1 What is its recorded normalized growth?
0.914 (inactive)

If you can, please state the reported normalized growth value of CC(C)(C)c1cc(C(=O)Nc2ccc3c(c2)OCO3)n(Cc2ccc(F)cc2)n1 .
0.918 (inactive)

Which normalized growth is reported for this compound? Brc1ccc(-c2csc(-c3ccncc3)n2)cc1
0.844 (inactive)

Can you look up the measured normalized growth of CC(C)(C)c1cc(C(=O)NNc2cccc(Cl)c2)n(Cc2ccccc2)n1 for me?
0.882 (inactive)

What value of normalized growth has been reported for the following compound? Clc1ccc(CN2CCN(c3cccc4[nH]ccc34)CC2)cc1Cl
0.977 (inactive)

Which normalized growth is reported for this compound? COc1c(Br)csc1C(=O)O/N=C(/N)c1cc(C(F)(F)F)cc(C(F)(F)F)c1
1.03 (inactive)

I'd like to know its normalized growth. The compound in question is Cc1ccc2nc(-c3ccc4c(c3)OCCO4)cn2c1
0.956 (inactive)

Endpoint output: normalized growth of C#CCSC1=NNC(c2ccccn2)S1 (stereo not given) . Value?
0.152 (active)

Looking for the measured normalized growth of NC(=S)N/N=C1/CCCc2ccccc21 , can you help?
0.796 (inactive)

normalized growth for N/C(Cc1cccc2ccccc12)=N/OC(=O)c1ccc(Cl)cc1 ?
0.876 (inactive)

Record request: normalized growth value, item O=[N+]([O-])c1cccc(C2CC(c3ccccc3)=Nc3ccccc3S2)c1 (stereo not given)
0.977 (inactive)

Query (compound): N#CSCC(=O)c1ccccc1 ; field requested: normalized growth
0.0895 (active)

Returns the measured normalized growth for the input compound. Input: Cc1onc(-c2c(Cl)cccc2Cl)c1C(=O)O/N=C(/N)Cc1ccc(C(C)(C)C)cc1
0.991 (inactive)

Request the reported normalized growth associated with O=C(Nc1ccc(F)cc1F)c1cc(Cl)c(-n2cccc2)c(Cl)c1
0.942 (inactive)

What measured normalized growth goes with Cc1ccc(-c2csc(-c3ccncc3)n2)cc1 ?
0.837 (inactive)

----------
The compounds listed here are annotated with their normalized growth.
# assay_protocol: chemical genetic growth profiling, strain panel (AID 1159580);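 also: tested at 20 µM; growth read once vehicle control cultures reached saturation at 30 °C; 1 = growth at the plate median or of vehicle wells; lower values mean less growth of the strain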
# test_parameters: S. cerevisiae deletion strains, growth OD, locus YML016C, strain PPZ1, active compounds read low
The campaign covered roughly 5,500 compounds. About 2,000 (36%) were called active. Not shown: some 18% with an inconclusive outcome. This is one part of the list.
Write the value as a bare number.

Solved entries (count: 4):
1. NCC(N)C(=O)c1ccccc1 (stereo not drawn)
1
2. O=C(OCc1ccccc1)c1ccccc1
0.991
3. Cc1cc(=O)[nH]c(=S)[nH]1
1.01
4. Oc1c(Cl)cc(Cl)cc1Sc1cc(Cl)cc(Cl)c1O
0.991

Form field: reported normalized growth of C/C1=C\CC(C)(C)/C=C/CC2(C)OC2CC1 (stereo not drawn)
1

Report normalized growth for CNNC please.
1.02

Looking for the measured normalized growth of C/C1=C/CC(C)(C)/C=C/C/C(C)=C/CC1 , can you help?
1.04

What does the data say about its normalized growth? Entry: NCC(=O)c1ccccc1
1.02

----------
Below: a set of entries, each annotated with reported normalized growth.
# assay_protocol: chemical genetic growth profiling, strain panel (AID 1159580);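 also: tested at 20 µM; growth read once vehicle control cultures reached saturation at 30 °C; 1 = growth at the plate median or of vehicle wells; lower values mean less growth of the strain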
# test_parameters: S. cerevisiae deletion strains, growth OD, locus YML016C, strain PPZ1, active compounds read low
Screen size: about 5,500 compounds; about 2,000 (36%) were called active. Another 18% or so got no clear call; they are omitted. This is one part of the list.
Lab note: record the figure alone, no unit after it.

// worked examples, normalized growth included
1) CC(=O)OCC(=O)[C@@]1(O)[C@H](C)CC2C3CCC4=CC(=O)C=C[C@]4(C)[C@@]3(F)[C@@H](O)C[C@@]21C (stereo partly specified)
1.01
2) CC(=O)Oc1ccc(/C=C/c2cc(OC(C)=O)cc(OC(C)=O)c2)cc1
0.999

What does the data say about its normalized growth? Entry: N=C(N)N
1

// lookup normalized growth for Cc1c(C)c2c(c(C)c1O)CCC(C)(CCCC(C)CCCC(C)CCCC(C)C)O2 (stereo unspecified)
1

GET /values?readout=normalized growth&item= CC(=O)Oc1ccc(C(c2ccc(OC(C)=O)cc2)c2ccccn2)cc1
0.981

If you can, please state the reported normalized growth value of CC12CCC3C(CC3(C)C)C(C)(CCC1=O)O2 (stereo unspecified) .
1.01

Fill blank: measured normalized growth of the molecule CC(=O)N[C@@H](Cc1c[nH]c2ccccc12)C(N)=O is ____.
0.995

Fill blank: measured normalized growth of the molecule CCN(CC)CCOC(=O)C(c1ccccc1)C1CCCCC1 (stereo unspecified) is ____.
1

Please look up its normalized growth: NC1=NCCN1CC(=O)O
0.986

Please give the measured normalized growth for this molecule: COC(=O)/C(=C1\OC(=O)C(c2ccccc2)=C1O)c1ccccc1
1.01

Endpoint output: normalized growth of NC(Cn1ccc(=O)c(O)c1)C(=O)O (stereo unspecified) . Value?
1.02

----------
# assay_protocol: chemical genetic growth profiling, strain panel (AID 1159580);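 also: tested at 20 µM; growth read once vehicle control cultures reached saturation at 30 °C; 1 = growth at the plate median or of vehicle wells; lower values mean less growth of the strain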
# test_parameters: S. cerevisiae deletion strains, growth OD, locus YDR388W, active compounds read low
Screen size: about 5,500 compounds; about 2,000 (36%) were called active. Not shown: some 18% with an inconclusive outcome. This is one part of the list.
measurement_kind: normalized growth
Could you respond with only the numeric value?

Look over these answered cases.
1) CNCCCC12CCC(c3ccccc31)c1ccccc12
0.983
2) NCC(N)C(=O)c1ccccc1 (centres undefined)
0.998
3) CC(=O)Oc1ccc(C(c2ccc(OC(C)=O)cc2)c2ccccn2)cc1
0.987
4) CC(CCc1ccccc1)NCC(O)c1ccc(O)c(C(N)=O)c1 (centres undefined)
1.02
5) CS(=O)(=O)Nc1ccc([N+](=O)[O-])cc1Oc1ccccc1
0.977
6) CCCc1c(OCCCCc2nn[nH]n2)ccc(C(C)=O)c1O
0.993
7) CC(C)CC1NC(=O)CNC1=O (centres undefined)
0.989
8) CC(=O)OCC(=O)[C@@]1(O)[C@H](C)CC2C3CCC4=CC(=O)C=C[C@]4(C)[C@@]3(F)[C@@H](O)C[C@@]21C (some centres undefined)
0.997
9) CN(C)C1C(=O)C(C(N)=O)=C(O)C2(O)C(=O)C3=C(O)c4c(O)ccc(Cl)c4C(C)(O)C3CC12 (centres undefined)
0.991
10) NC(=O)NC(=O)Cc1ccccc1
0.995

Given the compound NCC(=O)c1ccccc1 , what is its reported normalized growth?
0.991

Find the recorded normalized growth belonging to CC(=O)N[C@@H](Cc1c[nH]c2ccccc12)C(N)=O and report it.
1

Any idea what its normalized growth is? The compound is CCC(C)C(=O)OC1[C@@H]2CC3=C4CC(=O)O[C@@H](c5ccoc5)[C@]4(C)CCC3[C@@](C)(C2=O)[C@@H](CC(=O)OC)C1(C)C (some centres undefined)
1.01

Look at this compound and give its reported normalized growth. CC(C)=CCCC(C)[C@@H]1CC[C@]2(C)C3=C(CC[C@@]12C)C1(C)CC[C@H](O)C(C)(C)C1CC3 (some centres undefined)
1.03

normalized growth for O=C(OCc1ccccc1)c1ccccc1 ?
0.97

Which normalized growth is listed for Oc1cccc(O)c1 ?
0.986
